# System: OVCAR-4 ovarian
# ASSAY INFO: NCI tumour cell line growth inhibition, 48 h
Measured TGI, listed per entry for reference.

Worked examples follow.
- MOLECULE: "O=C(Nc1ccc(Cl)cc1C(F)(F)F)C(=O)C1CCCS1(=O)=O (stereo not drawn)"
  TARGET SYSTEM: "OVCAR-4 ovarian"
  TGI: "> 100 µM"
- MOLECULE: "COc1ccc(C#Cc2ccc(=O)oc2-c2cc(OC)c(OC)c(OC)c2)cc1O"
  TARGET SYSTEM: "OVCAR-4 ovarian"
  TGI: "> 100 µM"

With those in mind, consider the next molecule.
Input: // query TGI value for entry O=C(CCl)NCCNc1nccc(Nc2ccc(S(=O)(=O)Nc3ccccn3)cc2)n1
Output: 25.3 µM

----------
# Tested on: LOX IMVI melanoma
# ASSAY INFO: NCI tumour cell line growth inhibition, 48 h; in the data active means GI50 below about 0.43 µM; inactive means the rest
Respond only with the outcome that fits, drawn from active, inactive

Completed entries (count: 2):
- COMPOUND: "CC1=CC(C)=NN=C(N)N1S(=O)(=O)c1cc(C)c(Cl)cc1SCc1ccccc1"
  LABEL CLASS: "inactive"
- COMPOUND: "CCCCC(CCCCCC(CCCC)NCc1ccc2c(c1)OCO2)NCc1ccc2c(c1)OCO2 (configuration not stated)"
  LABEL CLASS: "active"

Input: What did this assay record as the result for NCCc1ccc(S(=O)(=O)F)cc1 ?
Output: inactive

Input: What did this assay record as the result for COc1cc(C2CC(c3cccc(Nc4ccnc5cc(Cl)ccc45)c3)=NN2c2ccc(Cl)cc2)cc(OC)c1OC (configuration not stated) ?
Output: inactive

Input: What did this assay record as the result for O=C1C(Cl)=C(Nc2ccc(Nc3ccccc3)c(NC3=C(Cl)C(=O)c4ccccc4C3=O)c2)C(=O)c2ccccc21 ?
Output: inactive

Input: What did this assay record as the result for COc1ccc(/C=C2\CN(C(=O)C(Cl)Cl)C/C(=C\c3ccc(OC)cc3)C2=O)cc1 ?
Output: active

Input: What did this assay record as the result for Cc1ccc2oc(=O)cc(/C(=C3/C=CC=N3)c3ccc[nH]3)c2c1 ?
Output: active

Input: What did this assay record as the result for O=c1oc2ccc(I)cc2c(=O)n1-c1ccc(F)cc1F ?
Output: inactive

Input: What did this assay record as the result for CSCS(=O)C[C@H](CO)NC(=O)/C=C/c1c(C)[nH]c(=O)[nH]c1=O (some centres not stated) ?
Output: inactive

Input: What did this assay record as the result for COC1C(O)CC(OC2CC(OC3CC(O[C@@H]4C(=O)c5c(cc6cc(OC7CC(OC8CC(O)C(O)C(C)O8)C(O)C(C)O7)c(C)c(O)c6c5O)CC4[C@H](OC)C(=O)O)OC(C)C3O)OC(C)C2O)OC1C (some centres not stated) ?
Output: inactive

Input: What did this assay record as the result for CN(C)CCCN(CCC1CCCCC1)CCC1CCCCC1 ?
Output: inactive

Input: What did this assay record as the result for CCCCCCCCCCCCCCCCCc1nccn1CCOCCO ?
Output: inactive

----------
# System: HOP-92 NSCLC
# ASSAY INFO: NCI tumour cell line growth inhibition, 48 h
Measured TGI, listed per entry for reference.

Input: // query TGI value for entry O=C(O)/C(Cl)=C(\Cl)C(=O)c1ccccc1
Output: > 100 µM

----------
# Tested on: SR leukemia
# ASSAY INFO: NCI tumour cell line growth inhibition, 48 h; in the data active = GI50 below about 0.43 µM; inactive = the rest
Respond only with the outcome that fits, drawn from YES for active, NO for inactive

Completed entries (count: 2):
- MOLECULE: "CCCCN1CCCC[C@@H]1C(=O)N[C@H](C(=O)N(C)[C@H](C[C@@H](OC(C)=O)c1nc(C(=O)NC2CCC(C(=O)OC)CC2)cs1)C(C)C)C(C)C (stereo not given in full)"
  LABEL CLASS: "YES"
- MOLECULE: "CCCCCCCCCCCCCCCC1=NCCN1"
  LABEL CLASS: "NO"

Input: What did this assay record as the result for Cc1c(O)c(N=Nc2nc3ccccc3s2)c2ccccc2c1O ?
Output: NO

Input: What did this assay record as the result for O=C(Nc1ccc(Cc2ccccc2)cc1)Nc1nn(C(=O)Nc2ccc(Cc3ccccc3)cc2)c2ccccc12 ?
Output: NO

Input: What did this assay record as the result for CC(=O)/C(=C/c1ccccc1)C(=O)CC(C)C ?
Output: NO

----------
# System: HCT-15 colon
# ASSAY INFO: NCI tumour cell line growth inhibition, 48 h
Measured TGI, listed per entry for reference.

Worked examples follow.
- COMPOUND: "COc1ccc([N+](=O)[O-])c2c(NCCCN(C)C)ccnc12"
  TGI: "4.95 µM"
- COMPOUND: "CCCCCCCCCCCCOP(=O)(O)OP(=O)(O)OCC1OC(n2ccc(N)nc2=O)CC1O (stereo unspecified)"
  TGI: "> 100 µM"
- COMPOUND: "C[C@@]1(C(=O)O)CCC[C@]2(C)C1CC[C@@]13C[C@@](O)(CC[C@]12O)[C@@]1(CO1)C3 (stereo partly specified)"
  TGI: "> 100 µM"
- COMPOUND: "CSc1nc(C)cc(Nc2ccc(O)c(CN3CCOCC3)c2)n1"
  TGI: "> 100 µM"
- COMPOUND: "Cc1cc(Cl)nc2nc(Cl)c(N)cc12"
  TGI: "4.6 µM"

Input: // query TGI value for entry N#Cc1c(NCc2ccccc2)nc(NCc2ccccc2)c(C#N)c1-c1ccc(O)cc1
Output: > 100 µM

----------
# Tested on: NCI-H522 lung
# ASSAY INFO: NCI tumour cell line growth inhibition, 48 h
Measured TGI, listed per entry for reference.
Please respond with the number in µM and leave the unit unwritten.

Worked examples follow.
- ENTRY SMILES: "CSc1c(C2=C(c3cn(C)c4ccccc34)C(=O)NC2=O)c2ccccc2n1C"
  UNIT DESCRIPTOR: "µM"
  TEST RESULT: 1.59
- ENTRY SMILES: "Oc1ccc(Nc2ccc3ccccc3c2)cc1"
  UNIT DESCRIPTOR: "µM"
  TEST RESULT: 27.7
- ENTRY SMILES: "O=C1/C=C/[C@@H](O)[C@@H]2C[C@@H](O)C[C@H]2/C=C/CCC[C@H](CCc2cccc3ccccc23)O1"
  UNIT DESCRIPTOR: "µM"
  TEST RESULT: 0.581

With those in mind, consider the next compound.
Input: // query TGI value for entry CC(=O)/C(=C/c1ccccc1)C(=O)CC(C)C
Output: 22

----------
# Test system: UACC-257 melanoma
# ASSAY INFO: NCI tumour cell line growth inhibition, 48 h
ATTRIBUTE MEASURED: TGI

- COMPOUND: "CCOC(=O)c1nc2ccc(C(F)(F)F)cc2nc1Nc1cc(OC)c(OC)c(OC)c1"
  TGI: "> 100 µM"
- COMPOUND: "C[C@]12CCC(=O)C(OC(=O)c3ccc([N+](=O)[O-])cc3)=C1CCC2=O"
  TGI: "> 100 µM"
- COMPOUND: "CC(=O)O[C@H]([C@H](OC(C)=O)[C@H](C)OC(C)=O)[C@@H](/C=C/[C@@H]1CC=CC(=O)O1)OC(C)=O"
  TGI: "> 100 µM"

Input: Param readout = TGI; param system = UACC-257 melanoma; param query = COc1ccc2c(c1)c(-c1nc(-c3c[nH]c4ncccc34)cs1)cn2CCCN1CCCCC1 ; response: value
Output: 3.69 µM

Input: Param readout = TGI; param system = UACC-257 melanoma; param query = CC(O)C1(CNc2cc(Cl)nc(N)n2)CCCCC1 (stereo not given) ; response: value
Output: > 100 µM

----------
Measured TGI, listed per entry for reference.
# System: SR leukemia
# ASSAY INFO: NCI tumour cell line growth inhibition, 48 h

Worked examples follow.
- COMPOUND: "Cc1cccc(Br)[n+]1[O-]"
  TARGET SYSTEM: "SR leukemia"
  TGI: "> 100 µM"
- COMPOUND: "O=C1C(=C(C(F)(F)Cl)C(F)(F)Cl)C2CCC1C2 (stereo unspecified)"
  TARGET SYSTEM: "SR leukemia"
  TGI: "> 3.34 µM"
- COMPOUND: "COc1cc2c(c(OC)c1OC)C(=O)[C@@H]1[C@H]2N1C(=O)NCCCl"
  TARGET SYSTEM: "SR leukemia"
  TGI: "> 100 µM"
- COMPOUND: "O=C(/C=C/c1ccc(Cl)cc1)c1ccccc(=O)c1O"
  TARGET SYSTEM: "SR leukemia"
  TGI: "> 100 µM"
- COMPOUND: "COC(=O)C1=C(O)[C@H](C(=O)OC)C2(O)C(C(=O)OC)[C@H](c3ccc(OC(=O)C(C)c4ccccc4)cc3)C[C@@H]1[C@@H]2C(=O)OC (stereo partly specified)"
  TARGET SYSTEM: "SR leukemia"
  TGI: "> 50 µM"
- COMPOUND: "COc1ccc(OC)c(NCC(=O)Nn2cnc3ccc(S(=O)(=O)Nc4cc(OC)ccc4OC)cc3c2=O)c1"
  TARGET SYSTEM: "SR leukemia"
  TGI: "> 100 µM"

Input: // query TGI value for entry CCOC(=O)Cn1c2ccccc2c(=O)c2cc(C)c(C)c(C#N)c21
Output: > 100 µM

Input: // query TGI value for entry Nc1ccc2[nH]c(-c3cccc(C(F)(F)F)c3)cc(=O)c2c1
Output: 97.8 µM

Input: // query TGI value for entry CN(C)CCN1C(=O)c2cccc3cc([N+](=O)[O-])cc(c23)C1=O
Output: 97 µM

Input: // query TGI value for entry CC(=O)Oc1cc(S(=O)(=O)Nc2n[nH]c(Nc3ccc(C)cc3)n2)c(S)cc1Cl
Output: > 100 µM

Input: // query TGI value for entry CCOC(=O)CC(c1ccccc1)C(C)(C(=O)OCC)C(=O)OCC (stereo unspecified)
Output: > 100 µM

Input: // query TGI value for entry CN(CC(=O)O)c1ncc2c(n1)C=CCC2
Output: > 100 µM
